Target: Human TREX1 enzyme (amino acids 1-242) (Homo sapiens)
Sequence (Q9NSU2 1-242): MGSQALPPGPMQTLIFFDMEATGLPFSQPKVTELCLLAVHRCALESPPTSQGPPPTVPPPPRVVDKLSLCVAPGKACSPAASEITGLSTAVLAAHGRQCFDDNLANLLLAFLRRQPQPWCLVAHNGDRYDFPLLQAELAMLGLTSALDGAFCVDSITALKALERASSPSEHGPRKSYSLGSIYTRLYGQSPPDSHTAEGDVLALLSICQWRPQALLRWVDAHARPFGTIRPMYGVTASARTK
pIC50: −log10 of the molar value.
List of pIC50 values.

Known results for molecules:
| molecule | pIC50 |
| --- | --- |
| COc1cc(-c2nc3cc(N4CCN(S(=O)(=O)c5ccccc5)CC4)ccc3[nH]2)cc(O)c1O | < 4.00 |
| COc1cc(-c2nc3cc(NC(=O)c4ccccc4)ccc3n2C2(C)COC2)c(F)c(O)c1O | ≥ 7.00 |
| COc1cc(-c2nc3ccc(C(=O)NC4CCN(C)C4)cc3n2C2(C)COC2)c(F)c(O)c1O (stereo not shown) | 6.00 to 7.00 |

Then there is this molecule:
Need pIC50 of "COc1cc(-c2nc3ccc(C#N)cc3n2C2(C)COC2)c(F)c(O)c1O" , thanks. 6.00 to 7.00

* * *

Molecular target: Human TREX1 enzyme (amino acids 1-242) (Homo sapiens)
Sequence (Q9NSU2 1-242): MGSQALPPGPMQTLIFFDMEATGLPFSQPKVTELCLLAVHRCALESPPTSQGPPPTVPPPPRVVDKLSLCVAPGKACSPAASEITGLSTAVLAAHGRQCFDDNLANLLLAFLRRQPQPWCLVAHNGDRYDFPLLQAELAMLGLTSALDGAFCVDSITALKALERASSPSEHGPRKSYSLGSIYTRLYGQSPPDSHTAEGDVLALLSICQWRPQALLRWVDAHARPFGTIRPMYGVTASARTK
endpointLabel: IC50

| compoundStructureString | endpointLabel | result |
| --- | --- | --- |
| COc1cc(-c2nc3ccc(C(=O)N(C)C)cc3n2C2(C)COC2)c(F)c(O)c1O | IC50 | 1000 to 10000 nM |
| COc1cc(-c2nc3cc(N4CCN(c5cccnc5)CC4)ccc3[nH]2)cc(O)c1O | IC50 | 1000 to 10000 nM |
| COc1ccc2c(c1)nc(-c1cc(OC)c(O)c(O)c1C)n2C1CCC1 | IC50 | 100 to 1000 nM |
| COc1cc(-c2nc3ccc(C(=O)NC4CCC(F)(F)CC4)cc3n2C2(C)COC2)c(F)c(O)c1O | IC50 | ≤ 100 nM |

Provide the documented IC50 with Human TREX1 enzyme (amino acids 1-242) (Homo sapiens) as the system for "COc1cc(-c2nc3ccncc3[nH]2)c(-c2cccnc2)c(O)c1O" > 100000 nM

Now the molecule "COc1cc(-c2nc3ccc(C(=O)N4CCC4)cc3n2C2(C)COC2)c(F)c(O)c1O" 100 to 1000 nM

// repeat for "COc1cc(-c2nc3cc(N4[C@@H]5CC[C@H]4CN(C(=O)c4ccccc4)C5)ccc3[nH]2)cc(O)c1O" and report 1000 to 10000 nM

Would you mind doing "COc1cc(-c2nc3ccccc3n2C2(C)COC2)c(F)c(O)c1O" as well? 100 to 1000 nM

These data points were gathered from patent US20230234943A1.
